Data provenance: patent US6677310B1

Listed here are molecules together with their documented CC50.
test system: MOLT-4; experiment: SRB anti-cancer assay, Leukemia; format: cell-based, human; details: MOLT-4 (Leukemia), 48 h; read-out: LC50 (the source's name)
Metric: CC50

{"columns": ["Substance smiles", "Metric", "Val"],
 "data": [
  ["N=c1[nH]c(=O)c2ncn([C@@H]3O[C@H](CO)[C@@H](O)[C@H]3O)c2c(=O)[nH]1", "CC50", "> 100 µM"],
  ["N=c1nc(N)c2ncn([C@@H]3O[C@H](COC(=O)c4ccccc4)[C@@H](OC(=O)c4ccccc4)[C@H]3OC(=O)c3ccccc3)c2c(N)n1", "CC50", "> 100 µM"]
]}

====

test system: SF-268; experiment: SRB anti-cancer assay, CNS Cancer; type: cell-based, human; settings: SF-268 (CNS Cancer), 48 h; read-out: LC50 (the source's name)
Metric: CC50 (µM)

{"columns": ["Substance smiles", "Metric", "Units of measure", "Comparator", "Val"],
 "data": [
  ["N=c1nc(N)c2ncn([C@@H]3O[C@H](CO)[C@@H](O)[C@H]3O)c2c(N)n1", "CC50", "µM", "=", 77.2],
  ["N=c1nc(N)c2ncn([C@@H]3O[C@H](COC(=O)c4ccccc4)[C@@H](OC(=O)c4ccccc4)[C@H]3OC(=O)c3ccccc3)c2c(N)n1", "CC50", "µM", "=", 74.2],
  ["N=c1[nH]c(=O)c2ncn([C@@H]3O[C@H](CO)[C@@H](O)[C@H]3O)c2c(=O)[nH]1", "CC50", "µM", ">", 100]
]}

====

system: SR; assay: SRB anti-cancer assay, Leukemia; type: cell-based, human; settings: 48 h
Listed here are compounds together with their documented LC50 (concentration killing 50% of cells).
Metric: LC50 (concentration killing 50% of cells)

{"columns": ["Compound", "Val"],
 "data": [
  ["N=c1nc(N)c2ncn([C@@H]3O[C@H](COC(=O)c4ccccc4)[C@@H](OC(=O)c4ccccc4)[C@H]3OC(=O)c3ccccc3)c2c(N)n1", "> 100 µM"],
  ["N=c1nc(N)c2ncn([C@@H]3O[C@H](CO)[C@@H](O)[C@H]3O)c2c(N)n1 [Compound 14-2]", "> 100 µM"],
  ["N=c1[nH]c(=O)c2ncn([C@@H]3O[C@H](CO)[C@@H](O)[C@H]3O)c2c(=O)[nH]1 [Compound 14-1]", "> 100 µM"]
]}

====

Listed here are compounds together with their documented CC50.
test system: HCT-15; assay: SRB anti-cancer assay, Colon Cancer; type: cell-based, human; settings: HCT-15 (Colon Cancer), 48 h; read-out: LC50 (the source's name)
Metric: CC50 (µM)

{"columns": ["Substance smiles", "Units of measure", "Comparator", "Val"],
 "data": [
  ["N=c1[nH]c(=O)c2ncn([C@@H]3O[C@H](CO)[C@@H](O)[C@H]3O)c2c(=O)[nH]1", "µM", ">", 100],
  ["N=c1nc(N)c2ncn([C@@H]3O[C@H](CO)[C@@H](O)[C@H]3O)c2c(N)n1", "µM", "=", 63.5],
  ["N=c1nc(N)c2ncn([C@@H]3O[C@H](COC(=O)c4ccccc4)[C@@H](OC(=O)c4ccccc4)[C@H]3OC(=O)c3ccccc3)c2c(N)n1", "µM", "=", 50.8]
]}
